System: CD4+ T cells
Assay: Exogenous autologous healthy donor restimulation assay, TNFα and IFNγ production by CD4+ T cells
Assay type: cell-based, human
Design: unit not given here
Conditions: maximum CD4+ T-cell response, donor independent; peptide pool 10 μg/mL, healthy donors
Answer each item with its documented Frequency (TNFα+ IFNγ+ CD4 T cells).
Give bare numbers.

molecule	Frequency (TNFα+ IFNγ+ CD4 T cells)
YESPIFSRDRVNPGALSGSLGQARAACWRTLGSLKPGGEFRAAEQRRAGWVPGAPGFTCSLISSRFPRERFCLRHRSSWRGARRVQCVCPGQTEGLWL (alternative splicing, WNT10A) YESPIFSRDRVNPGALSGSLGQARAACWRTLGSLKPGGEFRAAEQRRAGWVPGAPGFTCSLISSRFPRERFCLRHRSSWRGARRVQCVCPGQTEGLWL	0.071
RQREVVDLVKKDLVMRAVSLGTQRGDQNGRPSWSGHAIWARIMECAYKGQQECLVETGALGPMAFRVHLGSQVGMDSKEKRGNV (alternative splicing, CTHRC1) RQREVVDLVKKDLVMRAVSLGTQRGDQNGRPSWSGHAIWARIMECAYKGQQECLVETGALGPMAFRVHLGSQVGMDSKEKRGNV	0.16
TQRLPGHKVSNSCMTGLVLTFTKRDPFHKPVTWCGQLADVRQCMFHSIRERAHPLQRALATLNFFFVSFYTALYLTHPLLTLQTWEVVVTVCFSCWELCVPCDVLRRTCRGQR (alternative splicing, BTBD3) TQRLPGHKVSNSCMTGLVLTFTKRDPFHKPVTWCGQLADVRQCMFHSIRERAHPLQRALATLNFFFVSFYTALYLTHPLLTLQTWEVVVTVCFSCWELCVPCDVLRRTCRGQR	0.025
EIEGSCHGGMITMDIKMGSYSCDYLKHSETLSAMVVSCGISFLFLFPRKKIAKLIFKEQVP (alternative splicing, EPHA6) EIEGSCHGGMITMDIKMGSYSCDYLKHSETLSAMVVSCGISFLFLFPRKKIAKLIFKEQVP	0.57
SLLIGALRITWKREAGRKSFFKCGLRVHMWKGLQFIEITRRNWMLIFQSCSLFGTSQYRSLTKKCQLCFRFKRVSSKGSDITDKREVTH (alternative splicing, ARHGAP42) SLLIGALRITWKREAGRKSFFKCGLRVHMWKGLQFIEITRRNWMLIFQSCSLFGTSQYRSLTKKCQLCFRFKRVSSKGSDITDKREVTH	0.1
PPTAAASQVRSPTTATGTAAAGSLRAQTSSRATTESTRATGHSSAICAIVPSRAPITWRCT (gene fusion FOSB-> KLF2) PPTAAASQVRSPTTATGTAAAGSLRAQTSSRATTESTRATGHSSAICAIVPSRAPITWRCT	0.002
VYPVYQPVVSQAGLGELWQWASGKLRGYCWRRGQWHAYSIQCDPHPVFGEGACDCSETEAHGGCQSPRLESFPGQPPGFRGQRF (gene fusion NDUFB8-> SEC31B) VYPVYQPVVSQAGLGELWQWASGKLRGYCWRRGQWHAYSIQCDPHPVFGEGACDCSETEAHGGCQSPRLESFPGQPPGFRGQRF	0.011

// next entry
Query block: Report Frequency (TNFα+ IFNγ+ CD4 T cells) for RQREVVDLVSPREPSRDRRAGGGDLAARPTGRASVWLLGVSVCTAVCRVSCCAGVSCFLFTGEEGPGYACSESWNSEGRPKWEAIVERTCDMGPYNGMCLQG (alternative splicing, CTHRC1) RQREVVDLVSPREPSRDRRAGGGDLAARPTGRASVWLLGVSVCTAVCRVSCCAGVSCFLFTGEEGPGYACSESWNSEGRPKWEAIVERTCDMGPYNGMCLQG please.
Result block: 0.072
